# PROTOCOL: Tissue concentration of aprepitant by HPLC after oral or inhaled administration to rabbits
# Type: in vivo, New Zealand albino rabbits
# DETAILS: New Zealand White, rabbit, lung, right inferior lobe, po, 40 mg/kg/day, Lung concentration of aprepitant LIPD, Average ± SD of cases, Group 2, oral 40 mg/kg per day, seven days
READOUT_NAME: concentration at 7 days (ng/g)

INSERT INTO results (molecule, number) VALUES
  ('C[C@@H](OC1OCCN(Cc2nc(=O)[nH][nH]2)C1c1ccc(F)cc1)c1cc(C(F)(F)F)cc(C(F)(F)F)c1 (stereo in doubt) [Aprepitant]', 3500);

---

# PROTOCOL: Tissue concentration of aprepitant by HPLC after oral or inhaled administration to rabbits
# Format: in vivo, New Zealand albino rabbits
# DETAILS: New Zealand White (albino), rabbit, lung, right superior lobe, inhaled, 0.05 mg/kg/day, Lung concentration of aprepitant LSPD (right superior lobe), Group 5, inhalation (aerosol, olive oil) 0.05 mg/kg per day, seven days; individual cases
READOUT_NAME: concentration at 7 days

INSERT INTO results (compound, result) VALUES
  ('C[C@@H](OC1OCCN(Cc2nc(=O)[nH][nH]2)C1c1ccc(F)cc1)c1cc(C(F)(F)F)cc(C(F)(F)F)c1 (stereo in doubt) [Aprepitant]', '1400 ng/g');

---

# PROTOCOL: Tissue concentration of aprepitant by HPLC after oral or inhaled administration to rabbits
# Type: in vivo, New Zealand albino rabbits
# DETAILS: New Zealand White (albino), rabbit, lung, right superior lobe, inhaled, 0.05 mg/kg/day, Lung concentration of aprepitant LSPD, Average ± SD of cases, Group 5, inhalation (aerosol, olive oil) 0.05 mg/kg per day, seven days
READOUT_NAME: concentration at 7 days (ng/g)

INSERT INTO assay_data (compound, number) VALUES
  ('C[C@@H](OC1OCCN(Cc2nc(=O)[nH][nH]2)C1c1ccc(F)cc1)c1cc(C(F)(F)F)cc(C(F)(F)F)c1 (stereo in doubt) [Aprepitant]', 1400);

---

# PROTOCOL: Tissue concentration of aprepitant by HPLC after oral or inhaled administration to rabbits
# Type: in vivo, New Zealand albino rabbits
# DETAILS: New Zealand White, rabbit, lung, right inferior lobe, po, 10 mg/kg/day, Lung concentration of aprepitant LIPD, Average ± SD of cases, Group 1, oral 10 mg/kg per day, seven days
READOUT_NAME: concentration at 7 days (ng/g)

INSERT INTO measurements (molecule, unit_of_measure, number) VALUES
  ('C[C@@H](OC1OCCN(Cc2nc(=O)[nH][nH]2)C1c1ccc(F)cc1)c1cc(C(F)(F)F)cc(C(F)(F)F)c1 (stereo in doubt) [Aprepitant]', 'ng/g', 800);

---

# PROTOCOL: Tissue concentration of aprepitant by HPLC after oral or inhaled administration to rabbits
# Assay type: in vivo, New Zealand albino rabbits
# DETAILS: New Zealand White (albino), rabbit, lung, right inferior lobe, po, 100 mg/kg/day, Lung concentration of aprepitant LIPD (right inferior lobe), Group 4, oral 100 mg/kg per day, seven days; individual cases
READOUT_NAME: concentration at 7 days

INSERT INTO measurements (molecule, result) VALUES
  ('C[C@@H](OC1OCCN(Cc2nc(=O)[nH][nH]2)C1c1ccc(F)cc1)c1cc(C(F)(F)F)cc(C(F)(F)F)c1 (stereo in doubt) [Aprepitant]', '4900 ng/g');

---

# PROTOCOL: Tissue concentration of aprepitant by HPLC after oral or inhaled administration to rabbits
# Format: in vivo, New Zealand albino rabbits
# DETAILS: New Zealand White, rabbit, lung, left superior lobe, po, 10 mg/kg/day, Lung concentration of aprepitant LSPI, Average ± SD of cases, Group 1, oral 10 mg/kg per day, seven days
READOUT_NAME: concentration at 7 days (ng/g)

INSERT INTO results (molecule, readout_name, unit_of_measure, number) VALUES
  ('C[C@@H](OC1OCCN(Cc2nc(=O)[nH][nH]2)C1c1ccc(F)cc1)c1cc(C(F)(F)F)cc(C(F)(F)F)c1 (stereo in doubt) [Aprepitant]', 'concentration at 7 days', 'ng/g', 600);

---

# PROTOCOL: Tissue concentration of aprepitant by HPLC after oral or inhaled administration to rabbits
# Format: in vivo, New Zealand albino rabbits
# DETAILS: New Zealand White (albino), rabbit, lung, left inferior lobe, inhaled, 0.2 mg/kg/day, Lung concentration of aprepitant LIPI (left inferior lobe), Group 7, inhalation (aerosol, olive oil) 0.2 mg/kg per day, seven days; individual cases
READOUT_NAME: concentration at 7 days (ng/g)

INSERT INTO assay_data (molecule, number) VALUES
  ('C[C@@H](OC1OCCN(Cc2nc(=O)[nH][nH]2)C1c1ccc(F)cc1)c1cc(C(F)(F)F)cc(C(F)(F)F)c1 (stereo in doubt) [Aprepitant]', 5900);

---

# PROTOCOL: Tissue concentration of aprepitant by HPLC after oral or inhaled administration to rabbits
# Assay type: in vivo, New Zealand albino rabbits
# DETAILS: New Zealand White, rabbit, lung, right superior lobe, po, 80 mg/kg/day, Lung concentration of aprepitant LSPD (right superior lobe), Group 3, oral 80 mg/kg per day, seven days; individual cases
READOUT_NAME: concentration at 7 days (ng/g)

INSERT INTO results (molecule, readout_name, unit_of_measure, number) VALUES
  ('C[C@@H](OC1OCCN(Cc2nc(=O)[nH][nH]2)C1c1ccc(F)cc1)c1cc(C(F)(F)F)cc(C(F)(F)F)c1 (stereo in doubt) [Aprepitant]', 'concentration at 7 days', 'ng/g', 4900);

---

# PROTOCOL: Tissue concentration of aprepitant by HPLC after oral or inhaled administration to rabbits
# Format: in vivo, New Zealand albino rabbits
# DETAILS: New Zealand White (albino), rabbit, lung, left inferior lobe, inhaled, 0.1 mg/kg/day, Lung concentration of aprepitant LIPI (left inferior lobe), Group 6, inhalation (aerosol, olive oil) 0.1 mg/kg per day, seven days; individual cases
READOUT_NAME: concentration at 7 days (ng/g)

INSERT INTO assay_data (compound, unit_of_measure, number) VALUES
  ('C[C@@H](OC1OCCN(Cc2nc(=O)[nH][nH]2)C1c1ccc(F)cc1)c1cc(C(F)(F)F)cc(C(F)(F)F)c1 (stereo in doubt) [Aprepitant]', 'ng/g', 2800);
